- System: Premature termination codon
- experimental_details: Readthrough activity against UAA type PTC 5'-TTGAAAGAGCAATAAAATGGCTTCAAC-3' from DMD mdx mouse overexpressed in COS7 cells assessed as ratio of luciferase activity to beta-galactosidase activity at 200 uM incubated for 48 hrs by Dual luciferase reporter assay
- Type: functional, cell-based
assay_endpoint: Ratio

>  <smiles_string>
CN(CC(=O)O)NC(=O)C[C@@H](N)[C@H]1C[C@H]1CN

>  <tgt>
Premature termination codon

>  <measurement>
1.3

$$$$
>  <smiles_string>
CN(CC(=O)O)NC(=O)C[C@H](N)C[C@@H](O)CN

>  <tgt>
Premature termination codon

>  <measurement>
1.31

$$$$
>  <smiles_string>
CCCCCCCCC[C@H](N)C(=O)N[C@H](CC(=O)NN(C)CC(=O)O)[C@H]1C[C@H]1CN

>  <tgt>
Premature termination codon

>  <measurement>
1.81

$$$$
>  <smiles_string>
CN(CC(=O)O)NC(=O)C[C@@H](N)CCCN

>  <tgt>
Premature termination codon

>  <measurement>
1.22

$$$$
>  <smiles_string>
CN[C@@H]1[C@@H](O)[C@@H](O[C@@H]2[C@@H](O)[C@H](O[C@H]3O[C@H]([C@@H](C)O)[C@@H](O)[C@H](O)[C@H]3N)[C@@H](N)C[C@H]2N)OC[C@]1(C)O

>  <tgt>
Premature termination codon

>  <measurement>
4.5

$$$$
